A set of molecules tested on human cathepsin K (UniProt P43236), with measured pIC50:
pIC50: −log10 of the molar value.
READOUT: pIC50

Study these solved cases before continuing.
MOLECULE: N#CC1(NC(=O)[C@@H]2CCCC[C@H]2c2oc(-c3ccccn3)nc2-c2ccc(N3CCS(=O)(=O)CC3)cc2)CC1
READOUT: pIC50
OBSERVED: 8.90

MOLECULE: N#CC1(NC(=O)[C@@H]2CCCC[C@H]2c2oc(-c3ccc(F)cn3)nc2-c2ccc(N3CCS(=O)(=O)CC3)cc2)CC1
READOUT: pIC50
OBSERVED: 8.51

MOLECULE: N#CC1(NC(=O)[C@@H]2CC3CC3C[C@H]2c2oc(-c3ccc(F)cn3)nc2-c2ccc(N3CCS(=O)(=O)CC3)cc2)CC1 (single isomer, unassigned) [Example 8]
READOUT: pIC50
OBSERVED: 8.02

MOLECULE: CC(C)(C)OC(=O)Nc1ccc(-c2nc(-c3ccc(F)cc3)oc2[C@@H]2CCCC[C@H]2C(=O)NC2(C#N)CC2)cc1
READOUT: pIC50
OBSERVED: 8.40

MOLECULE: N#CC1(NC(=O)[C@@H]2CCCC[C@H]2c2oc(-c3cccc(C(F)(F)F)c3)nc2-c2ccc(N3CCS(=O)(=O)CC3)cc2)CC1
READOUT: pIC50
OBSERVED: 8.92

1. N#CC1(NC(=O)[C@@H]2CCCC[C@H]2c2oc(C(F)(F)C(F)(F)F)nc2-c2ccc(N3CCS(=O)(=O)CC3)cc2)CC1
2. N#CC1(NC(=O)[C@@H]2CCC(F)(F)C[C@H]2c2oc(C(F)(F)C(F)(F)F)nc2-c2ccc(N3CCS(=O)(=O)CC3)cc2)CC1
Hello, I am sorting some records. Could you say if 1 or 2 has the smaller pIC50 value? Please reply using the label of the selected record.
2

* * *

// each record: one item and its IC50 for UniProt P43236
READOUT: IC50 (nM)

COMPOUND: Cc1nccc(-c2nc(-c3ccc(N4CCS(=O)(=O)CC4)cc3)c([C@@H]3CCCC[C@H]3C(=O)NC3(C#N)CC3)o2)n1
SYSTEM: UniProt P43236
OBSERVED: 2.66

a. N#CC1(NC(=O)[C@@H]2CCCC[C@H]2c2oc(-c3ccc(C(F)(F)F)cn3)nc2-c2ccc(N3CCS(=O)(=O)CC3)cc2)CC1
b. CC(C#N)NC(=O)[C@@H]1CCCC[C@H]1c1oc(-c2ccc(F)cc2)nc1-c1ccc(N2CCS(=O)(=O)CC2)cc1 (single isomer, unassigned) [Example 122]
Hi! Which is lower in terms of IC50, the first one a or the second one b ? Write the label of whichever entry you select.
b
(b: 0.8 nM, a: 2.99 nM)
